- experimental_target: LTR-III G4
- protocol_text: SPR analysis
- experimental_conditions: read-out: KD LTR-III G4 (SPR); 25 °C, HEPES-KCl buffer, 1:1 binding model
parameter_measured: Kd (nM)
Answers are plain numbers, in nM.

Query string: Hello, please tell me recorded Kd for this one: CN(C)CCCn1c(=O)c2ccc3c(=O)n(CCCN(C)C)c(=O)c4c5[nH]c6ccccc6[nH]c5c(c1=O)c2c34
Result string: 3.2

----------
- experimental_target: hTel G4
- protocol_text: SPR analysis
- Parameters: species or system human
- experimental_conditions: read-out: KD hTel G4 (SPR); 25 °C, HEPES-KCl buffer, 1:1 binding model
parameter_measured: Kd (nM)
Give bare numbers, in nM.

Query string: Hello, please tell me recorded Kd for this one: CN(C)CCCn1c(=O)c2ccc3c(=O)n(CCCN(C)C)c(=O)c4c5[nH]c6ccccc6[nH]c5c(c1=O)c2c34
Result string: 13.1

----------
- protocol_text: Cytotoxicity assay
- Format: cell-based
- experimental_conditions: human, uninfected (mock-infected) TZM-bl cells
I'd appreciate it if you could supply CC50 values for the items below.
One number for each entry, in nM.

Answered cases to consult:
# smiles_entry, CC50, nM
records = [
    ("CN(C)CCCNc1cc2c(=O)n(CCCN(C)C)c(=O)c3c4[nH]c5ccccc5[nH]c4c4c(=O)n(CCCN(C)C)c(=O)c1c4c23", 1760),
    ("CN(C)CCCn1c(=O)c2cc(Br)c3c(=O)n(CCCN(C)C)c(=O)c4c5[nH]c6ccc([N+](=O)[O-])cc6[nH]c5c(c1=O)c2c34", 439),
    ("CN(C)CCCn1c(=O)c2cc(Br)c3c(=O)n(CCCN(C)C)c(=O)c4c5[nH]c6ncccc6[nH]c5c(c1=O)c2c34", 458),
    ("CN(C)CCCn1c(=O)c2ccc3c(=O)n(CCCN(C)C)c(=O)c4c5[nH]c6cc([N+](=O)[O-])ccc6[nH]c5c(c1=O)c2c34", 188),
    ("CN(C)CCCn1c(=O)c2cc(Br)c3c(=O)n(CCCN(C)C)c(=O)c4c5[nH]c6ccccc6[nH]c5c(c1=O)c2c34", 343),
]

Now let's try a different one.
Query string: Hello, please tell me recorded CC50 for this one: CN(C)CCCn1c(=O)c2ccc3c(=O)n(CCCN(C)C)c(=O)c4c5[nH]c6ccccc6[nH]c5c(c1=O)c2c34
Result string: 532

----------
- experimental_target: LTR-IV G4
- protocol_text: SPR analysis
- experimental_conditions: read-out: KD LTR-IV G4 (SPR); 25 °C, HEPES-KCl buffer, 1:1 binding model
parameter_measured: Kd (nM)
Numbers only, in nM.

# smiles_entry, unit, Kd
data = [
    ("CN(C)CCCn1c(=O)c2cc(Br)c3c(=O)n(CCCN(C)C)c(=O)c4c5[nH]c6ccc(C(=O)O)cc6[nH]c5c(c1=O)c2c34", "nM", 21.6),
    ("CN(C)CCCn1c(=O)c2cc(Br)c3c(=O)n(CCCN(C)C)c(=O)c4c5[nH]c6ccccc6[nH]c5c(c1=O)c2c34", "nM", 6.6),
    ("C[N+](C)(C)CCCn1c(=O)c2ccc3c(=O)n(CCC[N+](C)(C)C)c(=O)c4c5[nH]c6ccccc6[nH]c5c(c1=O)c2c34.[I-].[I-]", "nM", 1.7),
    ("CN(C)CCCn1c(=O)c2ccc3c(=O)n(CCCN(C)C)c(=O)c4c5[nH]c6ccccc6[nH]c5c(c1=O)c2c34", "nM", 6.1),
    ("CN(C)CCCn1c(=O)c2cc(Br)c3c(=O)n(CCCN(C)C)c(=O)c4c5[nH]c6ccc([N+](=O)[O-])cc6[nH]c5c(c1=O)c2c34", "nM", 5.9),
]

Now let's try a different one.
Query string: Hello, please tell me recorded Kd for this one: C[N+](C)(C)CCCn1c(=O)c2cc(Br)c3c(=O)n(CCC[N+](C)(C)C)c(=O)c4c5[nH]c6ccccc6[nH]c5c(c1=O)c2c34.[I-].[I-]
Result string: 12.9

meta.source: paper PMC4690987
